Where these numbers come from: patent US11358969B2

# Lookup of reported AUC(0-t) keyed by entry
- RUN DESCRIPTION: Mouse Pharmacokinetic Study (Example 1C)
- Assay type: in vivo
- REPORTED CONDITIONS: mouse; CD-1 mice, iv, 3 mg/kg; plasma
Please state the figure in ng·h/mL; there is no need to write the unit.

C[C@H](O)c1cnn2c(NCCc3c[nH]c4ccccc34)cc(-c3cncc(F)c3)nc12 [I-222b]; 564

Proceeding to the next compound to report its AUC(0-t).
stdin: Would you mind telling me what AUC(0-t) value was observed for Fc1cncc(-c2cc(NCCc3c[nH]c4ccccc34)n3ncc(Br)c3n2)c1 ?
stdout: 908
